SYSTEM_NAME: Substance-P receptor (Homo sapiens, UniProt P25103)
Sequence (P25103 whole entry): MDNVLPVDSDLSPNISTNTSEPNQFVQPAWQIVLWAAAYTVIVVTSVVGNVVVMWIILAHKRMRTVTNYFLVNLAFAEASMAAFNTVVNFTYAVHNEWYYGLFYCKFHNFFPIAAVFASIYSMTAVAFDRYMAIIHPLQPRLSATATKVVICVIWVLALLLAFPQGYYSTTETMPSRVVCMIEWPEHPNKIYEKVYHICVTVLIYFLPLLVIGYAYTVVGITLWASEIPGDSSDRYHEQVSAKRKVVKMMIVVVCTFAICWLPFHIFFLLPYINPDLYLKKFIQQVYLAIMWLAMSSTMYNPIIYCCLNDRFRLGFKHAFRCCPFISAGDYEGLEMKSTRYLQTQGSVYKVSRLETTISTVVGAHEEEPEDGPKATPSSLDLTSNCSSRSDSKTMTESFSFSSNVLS
READOUT_KIND: Ki

Task item: # query: Ki of entry "COc1cc(C(C)=O)ccc1OCCCN1CCC(c2noc3cc(F)ccc23)CC1"
Reply: > 10 µM

---

SYSTEM_NAME: Beta-1 adrenergic receptor (Homo sapiens, UniProt P08588)
Sequence (P08588 whole entry): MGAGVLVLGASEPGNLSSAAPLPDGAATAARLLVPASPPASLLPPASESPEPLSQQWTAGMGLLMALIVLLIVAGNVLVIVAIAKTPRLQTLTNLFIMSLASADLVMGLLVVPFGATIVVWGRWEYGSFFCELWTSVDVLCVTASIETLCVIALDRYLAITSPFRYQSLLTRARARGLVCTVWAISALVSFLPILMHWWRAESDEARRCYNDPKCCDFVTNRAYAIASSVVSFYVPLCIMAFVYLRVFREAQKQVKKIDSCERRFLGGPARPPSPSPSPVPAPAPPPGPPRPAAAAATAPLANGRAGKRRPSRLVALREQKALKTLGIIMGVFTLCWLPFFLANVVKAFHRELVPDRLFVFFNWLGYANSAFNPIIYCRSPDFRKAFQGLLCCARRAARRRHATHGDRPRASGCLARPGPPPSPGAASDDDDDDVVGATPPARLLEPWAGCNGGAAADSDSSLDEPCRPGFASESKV
pKi: −log10 of the molar value.
READOUT_KIND: pKi

Task item: Record "COc1cc(C(C)=O)ccc1OCCCN1CCC(c2noc3cc(F)ccc23)CC1" : what is its pKi with Beta-1 adrenergic receptor (Homo sapiens, UniProt P08588)?
Reply: < 5.00

---

SYSTEM_NAME: 5-hydroxytryptamine receptor 6 (Homo sapiens, UniProt P50406)
Sequence (P50406 whole entry): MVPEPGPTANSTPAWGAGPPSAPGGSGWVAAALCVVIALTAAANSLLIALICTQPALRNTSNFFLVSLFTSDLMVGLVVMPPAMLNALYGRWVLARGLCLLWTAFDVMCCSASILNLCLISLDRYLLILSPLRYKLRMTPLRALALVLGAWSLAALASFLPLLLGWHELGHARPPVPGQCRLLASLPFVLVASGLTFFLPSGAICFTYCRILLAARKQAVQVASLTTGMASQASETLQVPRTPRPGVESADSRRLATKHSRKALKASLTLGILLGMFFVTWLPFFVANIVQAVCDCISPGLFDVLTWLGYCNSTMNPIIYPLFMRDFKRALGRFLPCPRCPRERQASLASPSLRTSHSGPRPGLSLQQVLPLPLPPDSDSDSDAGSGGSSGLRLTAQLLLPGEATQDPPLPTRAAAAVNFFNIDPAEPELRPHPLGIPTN
READOUT_KIND: Ki (nM)
# number only, unit nM dropped from output

Task item: Consider the compound "COc1cc(C(C)=O)ccc1OCCCN1CCC(c2noc3cc(F)ccc23)CC1" and give its measured Ki.
Reply: 63.1
